target: T1, AFP158/HLA-A*02:01 complex (human); experiment: SPR, crude scFv captured, pMHC analyte;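 also: complex injected at several concentrations over the chip, association phase then running buffer for dissociation, KD derived from on- and off-rates computed from both curves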
T1 construct: flowed as analyte in SPR
The following binders are shown together with reported pKd values.
Kindly note that pKd refers to -log10 of the concentration in mol/L and answer with the value alone.

Some solved entries appear below for comparison.
{"Binder": "AS170036 VL1VH1-57M98F108D (scFv, also called 77-AS170036 VL1VH1-57M98F108D) scFv: QSALTQPRSVSGSPGQSVTISCAGTSSDVGSENYVSWYQQHPGKAPKLMIYQVNKRASGVPDRFSGSKSGNTASLTISGLQAEDEADYYCASYRSSDFNIVFGGGTKLTVLGGGGSGGGGSGGGGSEVQLVESGGGLVQPGGSLRLSCAASGFTFSSYAMSWVRQAPGKGLEWVSTINSGTGMPYYADSVKGRFTISRDNSKNTLYLQMNSLRAEDTAVYYCAKNFFDGSWFLDPPAMDYWGQGTLVTVSSHHHHHH", "Value Reported": 8.21}
{"Binder": "AS170036 VL1VH1-57K98Q108S (scFv, also called 75-AS170036 VL1VH1-57K98Q108S) scFv: QSALTQPRSVSGSPGQSVTISCAGTSSDVGSENYVSWYQQHPGKAPKLMIYQVNKRASGVPDRFSGSKSGNTASLTISGLQAEDEADYYCASYRSSDQNIVFGGGTKLTVLGGGGSGGGGSGGGGSEVQLVESGGGLVQPGGSLRLSCAASGFTFSSYAMSWVRQAPGKGLEWVSTINSGTGKPYYADSVKGRFTISRDNSKNTLYLQMNSLRAEDTAVYYCAKNFFDGSWFLSPPAMDYWGQGTLVTVSSHHHHHH", "Value Reported": 8.17}
{"Binder": "AS170036 VL1VH1-56Y98I108S (scFv, also called 45-AS170036 VL1VH1-56Y98I108S) scFv: QSALTQPRSVSGSPGQSVTISCAGTSSDVGSENYVSWYQQHPGKAPKLMIYQVNKRASGVPDRFSGSKSGNTASLTISGLQAEDEADYYCASYRSSDINIVFGGGTKLTVLGGGGSGGGGSGGGGSEVQLVESGGGLVQPGGSLRLSCAASGFTFSSYAMSWVRQAPGKGLEWVSTINSGTYSPYYADSVKGRFTISRDNSKNTLYLQMNSLRAEDTAVYYCAKNFFDGSWFLSPPAMDYWGQGTLVTVSSHHHHHH", "Value Reported": 8.55}
{"Binder": "AS170036 VL1VH1-57K98I108D (scFv, also called 71-AS170036 VL1VH1-57K98I108D) scFv: QSALTQPRSVSGSPGQSVTISCAGTSSDVGSENYVSWYQQHPGKAPKLMIYQVNKRASGVPDRFSGSKSGNTASLTISGLQAEDEADYYCASYRSSDINIVFGGGTKLTVLGGGGSGGGGSGGGGSEVQLVESGGGLVQPGGSLRLSCAASGFTFSSYAMSWVRQAPGKGLEWVSTINSGTGKPYYADSVKGRFTISRDNSKNTLYLQMNSLRAEDTAVYYCAKNFFDGSWFLDPPAMDYWGQGTLVTVSSHHHHHH", "Value Reported": 8.24}

Okay, now this binder:
*Q* Recorded pKd for AS170036 VL1VH1-57M98Q108S (scFv, also called 84-AS170036 VL1VH1-57M98Q108S) scFv: QSALTQPRSVSGSPGQSVTISCAGTSSDVGSENYVSWYQQHPGKAPKLMIYQVNKRASGVPDRFSGSKSGNTASLTISGLQAEDEADYYCASYRSSDQNIVFGGGTKLTVLGGGGSGGGGSGGGGSEVQLVESGGGLVQPGGSLRLSCAASGFTFSSYAMSWVRQAPGKGLEWVSTINSGTGMPYYADSVKGRFTISRDNSKNTLYLQMNSLRAEDTAVYYCAKNFFDGSWFLSPPAMDYWGQGTLVTVSSHHHHHH , please?
*A* 7.85
